The measured values listed here are drawn from ChEMBL document CHEMBL4765483.

Molecular target: Adenosine receptor A3 (Homo sapiens)
Sequence (whole entry): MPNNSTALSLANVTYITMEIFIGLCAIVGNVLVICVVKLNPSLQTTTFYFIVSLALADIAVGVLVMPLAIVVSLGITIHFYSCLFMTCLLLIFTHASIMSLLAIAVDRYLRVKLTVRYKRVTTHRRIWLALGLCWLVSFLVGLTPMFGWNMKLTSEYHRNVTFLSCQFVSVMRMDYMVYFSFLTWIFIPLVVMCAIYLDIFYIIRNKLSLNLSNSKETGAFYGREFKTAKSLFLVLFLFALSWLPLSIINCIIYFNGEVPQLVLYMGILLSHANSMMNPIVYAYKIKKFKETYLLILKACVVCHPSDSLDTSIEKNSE
Test: Displacement of [3H]NECA from adenosine A3 receptor expressed in human HeLa cell membranes at 1 uM incubated for 180 mins by scintillation counting method
Settings: Cell membrane
attribute_measured: inhibition (%)

Completed entries (count: 3):
compound	reported_value
CC1=C(C(=O)OC(C)C)[C@@H](c2ccco2)NC(=S)N1	1
COC(=O)C1=C(C)N(C)C(=O)NC1c1ccsc1 (racemic)	22
CCOP(=O)(OCC)C1=C(C)NC(=O)NC1c1cccs1 (racemic)	5

1: CC1=C(C(=O)OC(C)(C)C)C(c2ccco2)NC(=S)N1 (racemic)
2: CC1=C(C(=O)OCc2ccccc2)C(c2ccoc2)NC(=O)N1 (racemic)
Compare reported inhibition values for 1 and 2 . Which is lower? Refer to your chosen item by its label in the answer.
2

----------
target: Adenosine receptor A2a (Homo sapiens) (UniProt P29274); experiment: Displacement of [3H]ZM2421385 from adenosine A2A receptor expressed in human HeLa cell membranes at 1 uM incubated for 30 mins by scintillation counting method; conditions: Cell membrane
Sequence (P29274 whole entry): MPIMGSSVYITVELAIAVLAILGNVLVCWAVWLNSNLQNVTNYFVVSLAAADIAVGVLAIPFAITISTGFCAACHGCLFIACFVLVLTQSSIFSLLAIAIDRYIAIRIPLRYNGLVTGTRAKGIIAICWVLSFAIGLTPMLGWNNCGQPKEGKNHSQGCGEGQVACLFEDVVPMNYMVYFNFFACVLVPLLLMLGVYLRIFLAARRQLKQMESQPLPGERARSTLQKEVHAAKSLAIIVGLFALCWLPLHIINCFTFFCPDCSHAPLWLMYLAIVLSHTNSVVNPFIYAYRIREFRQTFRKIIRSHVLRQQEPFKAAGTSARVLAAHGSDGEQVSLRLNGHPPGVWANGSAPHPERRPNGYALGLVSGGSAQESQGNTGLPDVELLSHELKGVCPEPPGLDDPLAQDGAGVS
attribute_measured: inhibition (%)

molecule	assay_system	inhibition, %
COC(=O)C1=C(C)NC(=S)NC1c1ccsc1 (racemic)	Adenosine receptor A2a (Homo sapiens) (UniProt P29274)	1
CC1=C(C(=O)OC(C)(C)C)C(c2ccco2)NC(=O)N1C (racemic)	Adenosine receptor A2a (Homo sapiens) (UniProt P29274)	20
CCNC(=O)C1=C(C)NC(=O)NC1c1ccsc1 (racemic)	Adenosine receptor A2a (Homo sapiens) (UniProt P29274)	17
CC1=C(C(N)=O)C(c2cccs2)NC(=O)N1 (racemic)	Adenosine receptor A2a (Homo sapiens) (UniProt P29274)	1
CC1=C(C(=O)OCc2ccccc2)C(c2ccoc2)NC(=O)N1C (racemic)	Adenosine receptor A2a (Homo sapiens) (UniProt P29274)	37
CC1=C(C(=O)OC(C)C)[C@@H](c2ccco2)NC(=S)N1	Adenosine receptor A2a (Homo sapiens) (UniProt P29274)	13
CC1=C(C(=O)OCC2CCC2)C(c2cccs2)NC(=O)N1 (racemic)	Adenosine receptor A2a (Homo sapiens) (UniProt P29274)	22
COC(=O)C1=C(C)N(C)C(=O)NC1c1ccoc1 (racemic)	Adenosine receptor A2a (Homo sapiens) (UniProt P29274)	5

1: CC1=C(C(=O)CC(C)C)C(c2ccco2)NC(=O)N1 (racemic)
2: CC1=C(C(=O)OCc2ccccc2)C(c2cccs2)NC(=S)N1 (racemic)
Which record shows the lower inhibition: the first, 1 , or the second, 2 ? Reply with the label of the item you choose.
1

I: CC1=C(c2ncc(C)o2)C(c2ccoc2)NC(=O)N1 (racemic)
II: CC1=C(C(=O)SC(C)C)C(c2ccsc2)NC(=O)N1 (racemic)
Returns the identifier with the smallest measured inhibition among I and II . // output: label of the selected item
II
(II: 2%, I: 14%)

A: CCCOC(=O)C1=C(C)NC(=S)NC1c1ccoc1 (racemic)
B: CC1=C(c2ncc(C)o2)C(c2ccco2)NC(=O)N1 (racemic)
Hey, between A and B which has a smaller measured inhibition? State the label of the item chosen.
A
(A: 2%, B: 23%)
